The reported measurements were obtained from PubChem BioAssay.

Documented z-score across a set of compounds
assay: RPMI8226 myeloma cell viability, profiling panel, resazurin fluorescence, basal, 24 h, PK04 Diversity Set (AID 1180); conditions: higher = more signal;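 further: RPMI8826 multiple myeloma cell line at 5000 cells per well; test concentration not given here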
Field format: numeric only.

[
  {
    "COMPOUND": "CCOC(=O)[C@H](CC(C)C)NC(=O)CCC1CC(OC(=O)NCc2cccc3ccccc23)CC2(CCCC(COC(=O)NCc3ccccc3)O2)O1 (some centres undefined)",
    "ASSAY METRIC": "z-score",
    "NUMERIC READOUT": 0.588
  },
  {
    "COMPOUND": "C[C@@H](ON=C1[C@H]2CCn3c(=O)n(-c4ccccc4)c(=O)n3[C@H]2[C@H](O)[C@@H]2O[C@H]12)c1cn([C@H](CO)Cc2ccccc2)nn1",
    "ASSAY METRIC": "z-score",
    "NUMERIC READOUT": -1.65
  },
  {
    "COMPOUND": "CC(C)=NOCc1ccc(-c2cn([C@@H]3COC[C@H]3O)nn2)cc1",
    "ASSAY METRIC": "z-score",
    "NUMERIC READOUT": 0.106
  }
]

Here is the next item to consider.
Q: May I ask what z-score has been recorded for C#CCCCON=C1C[C@@H](O)[C@@H](O)[C@@H]2[C@@H]3C(=O)N(C4CCCCC4)C(=O)[C@@H]3CC[C@H]12 ?
Result: -1.08

====

Documented z-score across a set of compounds
assay: HepG2 liver cancer cell viability effects, profiling panel, resazurin fluorescence, 24 h, PK04 Diversity Set (AID 1172); details: higher = more signal; further: test concentration not given here

# count of solved cases: 3
[
  {
    "MOL SMILES": "O=C(NN=C1C[C@@H](O)[C@@H](O)[C@@H]2[C@@H]3C(=O)N(Cc4ccc5c(c4)OCO5)C(=O)[C@@H]3CC[C@H]12)OCc1ccccc1",
    "z-score": -0.0124
  },
  {
    "MOL SMILES": "CC(C)=CCCC(C)=CCON=C1C[C@@H](O)[C@@H](O)[C@@H]2[C@@H]3C(=O)N([C@@H](C)c4ccccc4)C(=O)[C@@H]3CC[C@H]12",
    "z-score": -1.03
  },
  {
    "MOL SMILES": "CC(C)=NOC[C@@H](O)COCc1ccco1",
    "z-score": -0.907
  }
]

Here is the next item to consider.
Q: May I ask what z-score has been recorded for CCCNC(=O)OC[C@H]1O[C@H](CCON=C(C)CCC(=O)OC[C@H]2O[C@H](C#Cc3ccccc3)C=C[C@@H]2Oc2ccc(C)cc2)C=C[C@@H]1Oc1ccc(OC)cc1 ?
Result: 0.462

====

experiment: basal S. cerevisiae growth modulation, no modifier, primary screen, OD600, strain BY4716, 24 h, basal condition (AID 1173); settings: OD600, 24 h, higher = more signal, called active from +8 up or from −8 down
Label not satisfied if z-score falls below -0.8; label satisfied in every other case.

[
  {
    "COMPOUND": "CO[C@H]1COC(=O)CC=C[C@@H](C)COC(=O)[C@@H](OCc2ccccc2)C=C[C@@H]1C",
    "ASSIGNED CATEGORY": "not satisfied"
  }
]

Q: # check: z-score of Cc1ccc(S(=O)(=O)N[C@H]2COC(=O)[C@@H](C)COC(=O)[C@H](C)NC(=O)CC=C[C@H]2C)cc1 is greater than or equal to -0.8
Result: not satisfied

Q: Now the compound COC(=O)[C@H](C)NC(=O)CCC1CC(OC(=O)NCCc2ccc(F)cc2)CC2(CCCC(COC(=O)NCCCN3CCCC3=O)O2)O1 (stereo not given in full)
Result: satisfied

Q: Now the compound C=C(C)C(=O)OC[C@@H]1CN2[C@@H](CC[C@@H](C)[C@@H]2c2ccc(Br)cc2)C(=O)O1
Result: not satisfied

Q: Now the compound CC(C)=CCCC(C)=CCON=C1C[C@@H](O)[C@@H](O)[C@@H]2[C@@H]3C(=O)N([C@@H](C)c4ccccc4)C(=O)[C@@H]3CC[C@H]12
Result: not satisfied
